- Measurement Target: PP2A (Homo sapiens)
- Construct: made in house
- Sequence (P67775 whole entry): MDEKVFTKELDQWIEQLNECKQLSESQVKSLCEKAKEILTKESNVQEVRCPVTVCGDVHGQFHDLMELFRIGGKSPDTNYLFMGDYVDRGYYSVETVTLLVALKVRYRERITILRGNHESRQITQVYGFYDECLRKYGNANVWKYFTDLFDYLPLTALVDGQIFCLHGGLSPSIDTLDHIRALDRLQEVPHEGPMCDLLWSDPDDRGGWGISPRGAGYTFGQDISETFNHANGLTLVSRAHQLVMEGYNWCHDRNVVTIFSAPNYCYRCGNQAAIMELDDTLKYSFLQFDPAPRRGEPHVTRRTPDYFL
- Sequence (P30153 whole entry partner): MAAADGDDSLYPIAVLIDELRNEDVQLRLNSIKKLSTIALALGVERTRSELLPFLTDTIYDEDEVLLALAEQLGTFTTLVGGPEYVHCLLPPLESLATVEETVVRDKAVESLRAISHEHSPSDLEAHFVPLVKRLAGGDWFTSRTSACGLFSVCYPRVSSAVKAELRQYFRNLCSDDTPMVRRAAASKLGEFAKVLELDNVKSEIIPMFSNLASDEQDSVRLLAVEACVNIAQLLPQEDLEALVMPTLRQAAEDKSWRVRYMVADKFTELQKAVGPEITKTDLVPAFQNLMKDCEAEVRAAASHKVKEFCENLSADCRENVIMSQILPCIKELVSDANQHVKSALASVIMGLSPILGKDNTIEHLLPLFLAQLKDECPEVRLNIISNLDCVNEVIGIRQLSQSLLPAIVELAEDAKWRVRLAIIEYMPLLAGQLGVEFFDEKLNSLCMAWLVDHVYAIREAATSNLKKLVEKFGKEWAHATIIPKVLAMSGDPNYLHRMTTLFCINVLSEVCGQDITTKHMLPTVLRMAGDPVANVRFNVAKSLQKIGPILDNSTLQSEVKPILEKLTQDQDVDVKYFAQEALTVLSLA
- Experimental Details: Phosphatase activity of PP2A using pNPP as substrate
- Assay type: biochemical
- Test Context: un-methylated PP2A, non-protein substrate pNPP, absence of ME and MT
pIC50: −log10 of the molar value.
Measurement Name: pIC50

Consider the reported pIC50 for these compounds:
Compound: CCCCCCCCCCCCCCCCCCCC(=O)NCCc1c[nH]c2ccc(O)cc12
pIC50: < 4.00
//
Compound: CCCCCCCCCCCCCCCC(=O)NCCc1c[nH]c2ccc(O)cc12
pIC50: < 4.00
//
Compound: CCCCCCCCCCCCCCCCNC(=O)NC(Cc1c[nH]c2ccc(O)cc12)C(=O)O (stereo not shown)
pIC50: < 4.00

// next item, pIC50 requested
Using the record for CCCCCCCCCCCCCCCCCCCC(=O)NCCc1c[nH]c2ccc(OC(=O)CCC(=O)O)cc12 , state its measured pIC50.
4.00 to 5.00

Ref: patent US10583119B2
